Ref: paper PMC7872314

- Tested on: zebrafish embryos
- protocol.summary: animal or person
- Type: in vivo, zebrafish (Danio rerio)
- assay.context: Danio rerio; read-out: EC50;nom (mFET)
measure: pEC50
pEC50 (log units): -log10 of the concentration in mol/L.

Worked examples follow.
{"compound": "CCCSc1ccc2nc(NC(=O)OC)[nH]c2c1", "study.system": "zebrafish embryos", "pEC50": 6.78}
{"compound": "CC1(C)C(C=C(Cl)c2ccc(Cl)cc2)C1C(=O)OC(C#N)c1ccc(F)c(Oc2ccccc2)c1 (stereo not shown)", "study.system": "zebrafish embryos", "pEC50": 6.56}
{"compound": "CCC(C)C1OC2(CCC1C)CC1CC(CC=C(C)C(OC3CC(OC)C(OC4CC(OC)C(O)C(C)O4)C(C)O3)C(C)C=CC=C3COC4C(O)C(C)=CC(C(=O)O1)C34O)O2 (stereo not shown)", "study.system": "zebrafish embryos", "pEC50": 5.77}
{"compound": "Cc1cc(-n2c(=O)[nH]c(=O)n(C)c2=O)ccc1Oc1ccc(SC(F)(F)F)cc1", "study.system": "zebrafish embryos", "pEC50": 4.90}

Request: Provide only the value of recorded pEC50 for COC(=O)Nc1nc2ccc(Sc3ccccc3)cc2[nH]1
Response: 7.11

Request: Give recorded pEC50. CO[C@H]1C[C@H](O[C@H]2[C@H](C)O[C@@H](O[C@@H]3/C(C)=C/C[C@@H]4C[C@@H](C[C@]5(C=C[C@H](C)[C@@H](C6CCCCC6)O5)O4)OC(=O)[C@@H]4C=C(C)[C@@H](O)[C@H]5OC/C(=C\C=C\[C@@H]3C)[C@]54O)C[C@@H]2OC)O[C@@H](C)[C@@H]1O
Response: 5.91

Request: Give the value of pEC50 reported for the following: COC(=O)Nc1nc2ccc([S+]([O-])c3ccccc3)cc2[nH]1 (stereo not shown)
Response: 4.61

---

- Tested on: ZF4 (fibroblasts) cell line
- protocol.summary: CFDA endpoint of AB/CFDA/NR multiplex, membrane stability
- Type: cell-based, zebrafish (Danio rerio)
- assay.context: Danio rerio, Fibroblast; CFDA - ZF4; read-out: IC50
pIC50: −log10 of the molar value.
Give TRUE when the value for pIC50 is at least 4. Give FALSE when it is less.

{"molecule": "COC(=O)Nc1nc2ccc([S+]([O-])c3ccccc3)cc2[nH]1 (stereo not shown)", "category": "FALSE"}
{"molecule": "CC1(C)C(C=C(Cl)c2ccc(Cl)cc2)C1C(=O)OC(C#N)c1ccc(F)c(Oc2ccccc2)c1 (stereo not shown)", "category": "FALSE"}
{"molecule": "CCCSc1ccc2nc(NC(=O)OC)[nH]c2c1", "category": "TRUE"}

Request: Form field: pIC50 at least 4? Entry: CCC(C)C1OC2(CCC1C)CC1CC(CC=C(C)C(OC3CC(OC)C(OC4CC(OC)C(O)C(C)O4)C(C)O3)C(C)C=CC=C3COC4C(O)C(C)=CC(C(=O)O1)C34O)O2 (stereo not shown)
Response: TRUE

Request: Would you say COC(=O)Nc1nc2ccc(Sc3ccccc3)cc2[nH]1 shows pIC50 at minimum 4?
Response: TRUE

Request: I'd appreciate it if you could say whether CO[C@H]1C[C@H](O[C@H]2[C@H](C)O[C@@H](O[C@@H]3/C(C)=C/C[C@@H]4C[C@@H](C[C@]5(C=C[C@H](C)[C@@H](C6CCCCC6)O5)O4)OC(=O)[C@@H]4C=C(C)[C@@H](O)[C@H]5OC/C(=C\C=C\[C@@H]3C)[C@]54O)C[C@@H]2OC)O[C@@H](C)[C@@H]1O has pIC50 at least equal to 4.
Response: TRUE
